- Tested on: NCI-H838
- Test method notes: relative viability (nuclei count vs DMSO), 5 days (fraction); higher = more cells survive
- Test settings: first compound 20 µM
Property label: relative viability
# print the numeric value only

In the examples that follow, each entry is paired with its recorded relative viability.
Cc1csc(=NC2CCCCC2)n1/N=C/c1ccc(O)c(O)c1O [MIM1] + Cc1nc(NC(=O)N2CCC[C@H]2C(N)=O)sc1-c1ccnc(C(C)(C)C(F)(F)F)c1 [Alpelisib] (partner 2 µM)
1.09
Cc1csc(=NC2CCCCC2)n1/N=C/c1ccc(O)c(O)c1O [MIM1] + CS(=O)(=O)CCNCc1ccc(-c2ccc3ncnc(Nc4ccc(OCc5cccc(F)c5)c(Cl)c4)c3c2)o1 [Lapatinib] (partner 2 µM)
0.183
Cc1csc(=NC2CCCCC2)n1/N=C/c1ccc(O)c(O)c1O [MIM1] + Nc1nc2[nH]cc(CCc3ccc(C(=O)N[C@@H](CCC(=O)O)C(=O)O)cc3)c2c(=O)[nH]1 [Pemetrexed] (partner 0.2 µM)
0.226
Cc1csc(=NC2CCCCC2)n1/N=C/c1ccc(O)c(O)c1O [MIM1] + N=C(N)NC(=N)NCCc1ccccc1 [Phenformin] (partner 250 µM)
0.14

Field: next compound
# relative viability of Cc1csc(=NC2CCCCC2)n1/N=C/c1ccc(O)c(O)c1O [MIM1] + Nc1ncn([C@H]2C[C@H](O)[C@@H](CO)O2)c(=O)n1 [Decitabine] (partner 2 µM) = 0.221

====

- Tested on: LOU-NH91
- Test method notes: relative viability (nuclei count vs DMSO), 5 days (fraction); higher = more cells survive
- Test settings: first compound 0.8 µM
hey, just use criterion met if measured relative viability is less than 0.7, otherwise criterion not met

Please review the entries below; each comes with its answer.
Nc1cccc2c1CN(C1CCC(=O)NC1=O)C2=O (configuration not stated) [Lenalidomide] + CS(=O)(=O)CCNCc1ccc(-c2ccc3ncnc(Nc4ccc(OCc5cccc(F)c5)c(Cl)c4)c3c2)o1 [Lapatinib] (partner 2 µM)
criterion met
Nc1cccc2c1CN(C1CCC(=O)NC1=O)C2=O (configuration not stated) [Lenalidomide] + Cc1cc(Nc2cc(N3CCN(C)CC3)nc(Sc3ccc(NC(=O)C4CC4)cc3)n2)n[nH]1 [Tozasertib] (partner 0.1 µM)
criterion not met
Nc1cccc2c1CN(C1CCC(=O)NC1=O)C2=O (configuration not stated) [Lenalidomide] + O=C(c1cc(Cc2n[nH]c(=O)c3ccccc23)ccc1F)N1CCN(C(=O)C2CC2)CC1 [Olaparib] (partner 8 µM)
criterion not met

Query: # strict comparison: is reported relative viability < 0.7? input = Nc1cccc2c1CN(C1CCC(=O)NC1=O)C2=O (configuration not stated) [Lenalidomide] + O=C(CCCCCCC(=O)Nc1ccccc1)NO [Vorinostat] (partner 1 µM)
Result: criterion not met

Query: # strict comparison: is reported relative viability < 0.7? input = Nc1cccc2c1CN(C1CCC(=O)NC1=O)C2=O (configuration not stated) [Lenalidomide] + Nc1nc2[nH]cc(CCc3ccc(C(=O)N[C@@H](CCC(=O)O)C(=O)O)cc3)c2c(=O)[nH]1 [Pemetrexed] (partner 0.2 µM)
Result: criterion met

Query: # strict comparison: is reported relative viability < 0.7? input = Nc1cccc2c1CN(C1CCC(=O)NC1=O)C2=O (configuration not stated) [Lenalidomide] + CCNC(=O)c1noc(-c2cc(C(C)C)c(O)cc2O)c1-c1ccc(CN2CCOCC2)cc1 [Luminespib] (partner 0.01 µM)
Result: criterion met

Data provenance: the supplement of paper PMC10307832
